Entries and their measured Vd follow.
- Protocol: Volume of distribution at steady state in rat plasma at 1 mg/kg, iv
- Type: ADME, organism-based
- Run Parameters: read-out: Vdss
All answers are understood in L/kg, so give the number only.

Here are 2 compounds together with their reported answers.
Cc1sc(C(=O)c2cncnc2N[C@@H]2C[C@H](COS(N)(=O)=O)[C@@H](O)C2)cc1C1OCCc2ccc(Cl)cc21 (stereo in doubt)
5
NS(=O)(=O)OC[C@H]1C[C@@H](Nc2ncncc2C(=O)c2ccn(Cc3cccc(Br)c3)n2)C[C@@H]1O
5.1

[in] Given the entry Cc1sc(C(=O)c2cncnc2N[C@@H]2C[C@H](COS(N)(=O)=O)[C@@H](O)C2)cc1[C@@H]1NCCc2ccc(Cl)cc21 , report its measured Vd.
[out] 8.5

###

Overview of reported AUC across a group of compounds:
- Protocol: AUC in rat blood at 1 mg/kg, iv
- Assay type: ADME, organism-based
- Parameters: dose 1 mg/kg
The reply should contain only the number, in µM·h.

Cc1sc(C(=O)c2cncnc2N[C@@H]2C[C@H](COS(N)(=O)=O)[C@@H](O)C2)cc1[C@@H]1NCCc2ccc(Cl)cc21
31.2
NS(=O)(=O)OC[C@H]1C[C@@H](Nc2ncncc2C(=O)c2ccn(Cc3cccc(Br)c3)n2)C[C@@H]1O
19.1

[in] Look up AUC: Cc1sc(C(=O)c2cncnc2N[C@@H]2C[C@H](COS(N)(=O)=O)[C@@H](O)C2)cc1C1OCCc2ccc(Cl)cc21 (stereo in doubt)
[out] 12.5

###

- Tested System: UniProtKB Q9UBT2
- Protocol: Inhibition of SAE in human HCT116 cells assessed as redistribution of SUMO2/3 proteins from nucleus to cytosol preincubated for 2 hrs followed by compound washout and measured immediately by immunofluorescence assay
- Type: cell-based, HCT-116
Readout: IC50 (nM)
Field: numeric (nM). Do not append units.

Reference set (3 entries):
NC(c1cccc(Cl)c1)c1csc(C(=O)c2cncnc2N[C@@H]2C[C@H](COS(N)(=O)=O)[C@@H](O)C2)c1 (stereo in doubt; 33)
83
NS(=O)(=O)OC[C@H]1C[C@@H](Nc2ncncc2C(=O)c2cc(C(O)c3cccc(Cl)c3)cs2)C[C@@H]1O (stereo in doubt; 30)
1210
NS(=O)(=O)OC[C@H]1C[C@@H](Nc2ncncc2C(=O)c2cc(C3NCCc4ccccc43)cs2)C[C@@H]1O (some centres undefined)
365

Okay, next one:
[in] # IC50 lookup, item CC(N)(c1cccc(Cl)c1)c1csc(C(=O)c2cncnc2N[C@@H]2C[C@H](COS(N)(=O)=O)[C@@H](O)C2)c1 (some centres undefined)
[out] 29

###

The following molecules are listed with their measured Papp A→B values.
- Protocol: Apparent permeability across apical to basolateral side in human Caco2 cells
- Type: ADME, cell-based
- Run Parameters: Caco-2
Write the value in ×10⁻⁶ cm/s as a bare number.

Recorded results for 2 molecules are shown here.
NS(=O)(=O)OC[C@H]1C[C@@H](Nc2ncncc2C(=O)c2ccn(Cc3cccc(Br)c3)n2)C[C@@H]1O
1.2
Cc1sc(C(=O)c2cncnc2N[C@@H]2C[C@H](COS(N)(=O)=O)[C@@H](O)C2)cc1C1OCCc2ccc(Cl)cc21 (stereo in doubt)
4

[in] What does the data say about its Papp A→B? Entry: Cc1sc(C(=O)c2cncnc2N[C@@H]2C[C@H](COS(N)(=O)=O)[C@@H](O)C2)cc1[C@@H]1NCCc2ccc(Cl)cc21
[out] 0.3

###

- Tested System: SUMO-activating enzyme (Homo sapiens)
- Protocol: Inhibition of SAE in human HCT116 cells assessed as reduction in redistribution of SUMO2/3 proteins from nucleus to cytosol incubated for 4 hrs by immunofluorescence assay
- Assay type: cell-based, HCT-116
Readout: pIC50
Keep it numeric: pIC50 is minus log10 of the concentration in mol/L.

Answered cases to consult:
CN(C)C(c1cccc(Cl)c1)c1csc(C(=O)c2cncnc2N[C@@H]2C[C@H](COS(N)(=O)=O)[C@@H](O)C2)c1 (stereo not given in full)
5.38
NS(=O)(=O)OC[C@H]1C[C@@H](Nc2ncncc2C(=O)c2ccn(Cc3cccc(Cl)c3)n2)C[C@@H]1O
7.70

[in] Requested field: pIC50. Item: NC(c1cccc(Cl)c1)c1csc(C(=O)c2cncnc2N[C@@H]2C[C@H](COS(N)(=O)=O)[C@@H](O)C2)c1 (stereo in doubt; 32)
[out] 5.99

[in] Requested field: pIC50. Item: NS(=O)(=O)OC[C@H]1C[C@@H](Nc2ncncc2C(=O)c2ccn(Cc3ccccc3)n2)C[C@@H]1O
[out] 7.15

[in] Request the reported pIC50 associated with NS(=O)(=O)OC[C@H]1C[C@@H](Nc2ncncc2C(=O)c2ccn(Cc3cccc(OC(F)(F)F)c3)n2)C[C@@H]1O
[out] 7.11

[in] Given the entry NS(=O)(=O)OC[C@H]1C[C@@H](Nc2ncncc2C(=O)c2ccn(Cc3ccc(Cl)o3)n2)C[C@@H]1O , report its measured pIC50.
[out] 7.48

[in] I am curious: what pIC50 value has been reported for CNC(c1cccc(Cl)c1)c1csc(C(=O)c2cncnc2N[C@@H]2C[C@H](COS(N)(=O)=O)[C@@H](O)C2)c1 (stereo not given in full) ?
[out] 6.36

[in] Data request, read-out pIC50, for NS(=O)(=O)OC[C@H]1C[C@@H](Nc2ncncc2C(=O)c2cc(C3NCc4ccc(Cl)cc43)cs2)C[C@@H]1O (stereo not given in full)
[out] 6.51

[in] Fill blank: measured pIC50 of the molecule NS(=O)(=O)OC[C@H]1C[C@@H](Nc2ncncc2C(=O)c2ccn(Cc3ccccc3)n2)[C@H](F)[C@@H]1O is ____.
[out] 6.29

###

- Tested System: Carbonic anhydrase 2 (Homo sapiens)
- Protocol: Inhibition of recombinant human CA2 expressed in Escherichia coli using fluorescein diacetate as substrate at […] by fluorometric esterase assay
Readout: IC50 (nM)
Give just the numeric value; nM need not be written.

Cc1sc(C(=O)c2cncnc2N[C@@H]2C[C@H](COS(N)(=O)=O)[C@@H](O)C2)cc1[C@@H]1NCCc2ccc(Cl)cc21
20

Continue with the molecule presented below.
[in] Requested field: IC50. Item: Cc1sc(C(=O)c2cncnc2N[C@@H]2C[C@H](COS(N)(=O)=O)[C@@H](O)C2)cc1C1OCCc2ccc(Cl)cc21 (stereo in doubt)
[out] 10

###

- Tested System: SUMO-activating enzyme (Homo sapiens, UniProt Q9UBT2)
- Sequence (Q9UBE0 whole entry): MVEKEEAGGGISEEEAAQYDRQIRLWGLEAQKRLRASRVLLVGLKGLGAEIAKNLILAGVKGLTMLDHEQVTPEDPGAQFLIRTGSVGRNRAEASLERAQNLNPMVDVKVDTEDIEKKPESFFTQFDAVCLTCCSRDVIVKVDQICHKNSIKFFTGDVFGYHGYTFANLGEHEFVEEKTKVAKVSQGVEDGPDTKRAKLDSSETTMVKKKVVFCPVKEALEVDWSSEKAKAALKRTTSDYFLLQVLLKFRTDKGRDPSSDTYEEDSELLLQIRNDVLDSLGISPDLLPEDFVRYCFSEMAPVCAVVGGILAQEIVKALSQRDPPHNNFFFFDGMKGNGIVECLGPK
- Sequence (Q9UBT2 whole entry): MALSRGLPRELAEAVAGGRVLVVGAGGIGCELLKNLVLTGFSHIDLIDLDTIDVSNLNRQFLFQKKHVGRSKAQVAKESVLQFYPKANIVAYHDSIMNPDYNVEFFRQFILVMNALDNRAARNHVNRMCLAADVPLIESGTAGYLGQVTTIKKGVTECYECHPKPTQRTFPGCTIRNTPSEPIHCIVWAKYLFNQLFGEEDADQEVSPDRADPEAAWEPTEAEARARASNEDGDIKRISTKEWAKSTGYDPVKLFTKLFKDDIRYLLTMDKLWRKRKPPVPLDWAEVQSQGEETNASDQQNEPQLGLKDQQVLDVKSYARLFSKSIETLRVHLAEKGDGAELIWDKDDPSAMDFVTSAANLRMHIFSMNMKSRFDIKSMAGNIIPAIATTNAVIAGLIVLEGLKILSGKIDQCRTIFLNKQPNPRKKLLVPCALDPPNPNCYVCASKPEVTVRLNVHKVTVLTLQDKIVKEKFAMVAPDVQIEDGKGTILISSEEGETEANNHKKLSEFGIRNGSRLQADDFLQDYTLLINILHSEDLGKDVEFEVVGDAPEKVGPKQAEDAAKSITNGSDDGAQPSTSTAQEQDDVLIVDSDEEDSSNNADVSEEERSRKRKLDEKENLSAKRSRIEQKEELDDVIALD
- Protocol: Inhibition of SAE (unknown origin) using SUMO2 as substrate incubated for 60 mins in presence of ATP and PPi by pyrophosphate exchange assay
- Assay type: protein-complex assay
Recorded measurements of IC50, one per entry
Answer by giving the amount and then stating its unit.

NS(=O)(=O)OC[C@H]1C[C@@H](Nc2ncncc2C(=O)c2ccn(Cc3ccccc3)n2)[C@H](O)[C@@H]1O
50 nM

# evaluate next
[in] # query: IC50 of entry NS(=O)(=O)OC[C@H]1C[C@@H](Nc2ncncc2C(=O)c2ccn(Cc3ccccc3)n2)C[C@@H]1O
[out] 69 nM

###

pIC50 reference
- Tested System: NEDD8 activating enzyme (Homo sapiens, UniProt Q8TBC4)
- Sequence (Q8TBC4 whole entry): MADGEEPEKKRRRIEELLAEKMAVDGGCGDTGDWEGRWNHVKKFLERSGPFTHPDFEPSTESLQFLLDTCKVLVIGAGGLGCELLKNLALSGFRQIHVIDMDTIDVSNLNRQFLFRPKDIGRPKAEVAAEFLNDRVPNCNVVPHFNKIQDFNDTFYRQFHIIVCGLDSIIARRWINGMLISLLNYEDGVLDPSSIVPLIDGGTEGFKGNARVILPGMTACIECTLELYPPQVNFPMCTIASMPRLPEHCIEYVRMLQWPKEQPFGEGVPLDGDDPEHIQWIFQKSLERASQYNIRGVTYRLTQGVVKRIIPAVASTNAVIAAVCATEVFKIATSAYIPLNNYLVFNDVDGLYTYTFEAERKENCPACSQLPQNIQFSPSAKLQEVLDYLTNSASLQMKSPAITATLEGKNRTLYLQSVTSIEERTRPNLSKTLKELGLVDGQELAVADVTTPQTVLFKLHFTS
- Sequence (Q13564 whole entry, further chain): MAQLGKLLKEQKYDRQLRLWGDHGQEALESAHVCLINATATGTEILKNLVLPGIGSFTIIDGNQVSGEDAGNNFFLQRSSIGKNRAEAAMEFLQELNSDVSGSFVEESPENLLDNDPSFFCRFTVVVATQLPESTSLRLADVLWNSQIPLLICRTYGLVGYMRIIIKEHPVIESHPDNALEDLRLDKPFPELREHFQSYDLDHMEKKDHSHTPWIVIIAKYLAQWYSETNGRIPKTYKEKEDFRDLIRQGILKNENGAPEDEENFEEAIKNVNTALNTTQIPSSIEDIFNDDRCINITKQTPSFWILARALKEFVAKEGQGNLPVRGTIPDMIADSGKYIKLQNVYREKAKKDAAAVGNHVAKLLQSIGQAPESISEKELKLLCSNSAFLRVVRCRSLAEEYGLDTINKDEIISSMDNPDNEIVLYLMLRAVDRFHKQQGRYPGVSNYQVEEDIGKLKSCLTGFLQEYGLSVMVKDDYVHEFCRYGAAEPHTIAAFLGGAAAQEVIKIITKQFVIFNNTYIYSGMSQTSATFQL
- Protocol: Inhibition of recombinant NAE (unknown origin) in presence of ATP at Km concentration by HTRF assay
- Assay type: protein-complex assay
As a rule, pIC50 stands for the negative log10 of the concentration, concentration in M.

Field: example entries. Status: answers known.
NS(=O)(=O)OC[C@H]1C[C@@H](Nc2ncncc2C(=O)c2cc(Cc3cccc(Br)c3)cs2)C[C@@H]1O
7.04
Cc1cccc(Cn2ccc(C(=O)c3cncnc3N[C@@H]3C[C@H](COS(N)(=O)=O)[C@@H](O)C3)n2)c1
6.51
C#Cc1cccc(Cn2ccc(C(=O)c3cncnc3N[C@@H]3C[C@H](COS(N)(=O)=O)[C@@H](O)C3)n2)c1
6.52

Read the next record carefully.
[in] Tell me the measured pIC50 of Cc1sc(C(=O)c2cncnc2N[C@@H]2C[C@H](COS(N)(=O)=O)[C@@H](O)C2)cc1C(O)c1cccc(Cl)c1 (some centres not stated) , please.
[out] 7.19

###

- Tested System: Carbonic anhydrase 1 (Homo sapiens, UniProt P00915)
- Sequence (P00915 whole entry): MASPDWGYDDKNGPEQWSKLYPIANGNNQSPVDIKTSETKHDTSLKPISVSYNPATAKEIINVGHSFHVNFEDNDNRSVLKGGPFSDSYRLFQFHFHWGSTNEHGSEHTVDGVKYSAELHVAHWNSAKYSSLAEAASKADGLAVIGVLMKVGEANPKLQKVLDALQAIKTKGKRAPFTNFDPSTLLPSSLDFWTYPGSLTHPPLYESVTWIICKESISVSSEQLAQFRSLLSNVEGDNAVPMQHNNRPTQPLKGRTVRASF
Readout: IC50
A complete answer gives the number and then names the unit.

NS(=O)(=O)OC[C@H]1C[C@@H](Nc2ncncc2C(=O)c2ccn(Cc3cccc(Br)c3)n2)C[C@@H]1O
50 nM

From here, focus on the item given below.
[in] What IC50 appears in the records for this compound with Carbonic anhydrase 1 (Homo sapiens, UniProt P00915)? Cc1sc(C(=O)c2cncnc2N[C@@H]2C[C@H](COS(N)(=O)=O)[C@@H](O)C2)cc1C1OCCc2ccc(Cl)cc21 (stereo in doubt)
[out] 50 nM

###

pIC50: recorded values
- Tested System: UniProt Q9UBT2
- Protocol: Inhibition of SAE (unknown origin) using SUMO1 as substrate incubated for 60 mins in presence of ATP and PPi by pyrophosphate exchange assay
- Type: protein-complex assay
Field pIC50 (float): negative decimal logarithm of the concentration in molar.

NS(=O)(=O)OC[C@H]1C[C@@H](Nc2ncncc2C(=O)c2ccn(Cc3ccccc3)n2)[C@H](O)[C@@H]1O
8.22

[in] Look at this molecule and give its reported pIC50. NS(=O)(=O)OC[C@H]1C[C@@H](Nc2ncncc2C(=O)c2ccn(Cc3ccccc3)n2)C[C@@H]1O
[out] 7.96
